B1: PTPLAD1 (parent)
chain: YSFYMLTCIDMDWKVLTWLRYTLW

Variants of: B1
Assay: protein stability index of a GFP-peptide fusion (GPS, HEK-293T) (PSI 1-6); higher = more stable;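 note: lentivirally expressed fusions sorted by FACS into six bins by GFP to DsRed ratio, PSI derived from sequencing read proportions per bin multiplied by bin number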
Details: c terminus: a fixed tail appended
Below is a list of entries, each paired with its recorded protein stability index value.
Keep the answer to the number alone.

Some variants with recorded protein stability index:
INSERT INTO results (seq_text, reported_measurement) VALUES
  ('YSFYMLTCIDMDWPVLTWLRYTLW', 3.03),
  ('YSFYHLTCIDMDWKVLTWLRYTLW', 2.54),
  ('YSFYMLTCIDMDWKVLTWLRYTQW', 3.84),
  ('YSFYMLTCIDMDWKVLTWLAYTLW', 2.88),
  ('YSFYMLTCIDMDWKVLWWLRYTLW', 2.66);

// query // lookup protein stability index for YSFYMLTCIDKDWKVLTWLRYTLW
// result 3.05

// query Look up protein stability index: YSFYMLTCIDMDWKVLTWLRYTRW
// result 4.16

Reference source: the supplement of paper PMC10567573
